- Target entity: D(4) dopamine receptor (Homo sapiens)
- Sequence (whole entry): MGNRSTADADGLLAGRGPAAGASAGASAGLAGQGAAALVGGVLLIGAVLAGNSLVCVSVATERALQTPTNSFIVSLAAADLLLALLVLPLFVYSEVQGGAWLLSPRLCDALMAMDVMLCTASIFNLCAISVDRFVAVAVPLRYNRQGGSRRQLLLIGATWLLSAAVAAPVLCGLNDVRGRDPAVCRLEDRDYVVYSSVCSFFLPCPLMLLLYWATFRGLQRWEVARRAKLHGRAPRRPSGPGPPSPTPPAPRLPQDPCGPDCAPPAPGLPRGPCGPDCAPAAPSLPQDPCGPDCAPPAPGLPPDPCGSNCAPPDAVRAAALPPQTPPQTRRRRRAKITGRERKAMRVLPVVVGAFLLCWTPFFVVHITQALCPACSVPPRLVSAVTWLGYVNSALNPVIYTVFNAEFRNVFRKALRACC
- Assay method text: Displacement of [3H]-methylspiperone from human cloned dopamine D4 receptor expressed in HEK293 cells at 10 '-7 M by liquid scintillation counter
- Format: cell-based
Quantity measured: inhibition (%)
Give just the numeric value; % need not be written.

Examples with answers:
> print(dat)
                                 cpd.smiles                          target.entity  unit.info  observed.measurement
1  Cl.O=S(=O)(c1cncc2ccccc12)N1CCC(CCN2CCN(c3ccc(Cl)cc3)CC2)CC1  D(4) dopamine receptor (Homo sapiens)          %                    70
2  Cl.O=S(=O)(c1cnc2ccccc2c1)N1CCC(CCN2CCN(c3ccc(Cl)cc3)CC2)CC1  D(4) dopamine receptor (Homo sapiens)          %                    63

# input Complete the entry with inhibition for O=S(=O)(NCCCCN1CCN(c2cccc(Cl)c2)CC1)c1cnc2ccccc2c1
# output 30

# input Give a short answer stating reported inhibition for O=S(=O)(NCCCCN1CCN(c2ccc(Cl)cc2)CC1)c1cnc2ccccc2c1 .
# output 37

----------
- Target entity: 5-hydroxytryptamine receptor 1A (Rattus norvegicus, UniProt P19327)
- Sequence (P19327 whole entry): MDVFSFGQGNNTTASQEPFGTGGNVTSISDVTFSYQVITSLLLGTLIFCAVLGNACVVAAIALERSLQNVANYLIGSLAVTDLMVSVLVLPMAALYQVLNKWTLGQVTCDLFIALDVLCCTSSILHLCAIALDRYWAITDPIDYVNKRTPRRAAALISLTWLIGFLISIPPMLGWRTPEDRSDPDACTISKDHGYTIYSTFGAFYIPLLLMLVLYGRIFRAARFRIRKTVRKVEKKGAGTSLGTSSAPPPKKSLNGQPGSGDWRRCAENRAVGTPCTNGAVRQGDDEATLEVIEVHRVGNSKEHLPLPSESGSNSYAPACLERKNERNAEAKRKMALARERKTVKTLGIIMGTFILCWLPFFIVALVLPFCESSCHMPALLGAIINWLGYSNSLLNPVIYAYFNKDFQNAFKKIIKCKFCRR
pKi: −log10 of the molar value.
pKi of 6 or higher: MET. Under 6: NOT MET.

> print(dat)
                                 cpd.smiles  class.name
1  O=S(=O)(c1ccc2cccnc2c1)N1CCC(CN2CCN(c3ccc(Cl)cc3)CC2)CC1         MET
2  O=S(=O)(NCCCCN1CCN(c2ccc(Cl)cc2)CC1)c1ccc2ncccc2c1     NOT MET

Here is the next item to consider.
# input Please indicate if the recorded pKi for O=S(=O)(NCCCCN1CCN(c2cccc(Cl)c2)CC1)c1ccc2ccccc2c1 meets or exceeds 6.
# output MET

----------
What follows is a collection of Ki values obtained with UniProt P50406.
Sequence (P50406 whole entry): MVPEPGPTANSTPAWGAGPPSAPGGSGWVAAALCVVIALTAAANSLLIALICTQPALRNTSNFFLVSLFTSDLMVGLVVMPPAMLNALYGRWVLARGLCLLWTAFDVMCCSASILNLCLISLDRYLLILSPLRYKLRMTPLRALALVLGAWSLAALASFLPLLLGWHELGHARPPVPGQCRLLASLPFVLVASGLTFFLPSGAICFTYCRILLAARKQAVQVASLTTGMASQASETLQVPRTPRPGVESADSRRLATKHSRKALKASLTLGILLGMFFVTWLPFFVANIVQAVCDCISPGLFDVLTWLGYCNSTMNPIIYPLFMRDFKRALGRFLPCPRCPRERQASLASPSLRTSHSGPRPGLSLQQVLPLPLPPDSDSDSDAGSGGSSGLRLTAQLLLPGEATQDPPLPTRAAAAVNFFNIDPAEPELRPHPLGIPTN
The figure you give is taken to be in µM; do not add the unit.

Previously resolved entries follow.
> print(dat)
                                 cpd.smiles   target.entity  observed.measurement
1  Cl.O=S(=O)(c1cnc2ccccc2c1)N1CCC(CCN2CCN(c3ccc(Cl)cc3)CC2)CC1  UniProt P50406                  24.8
2  O=S(=O)(NCCCCN1CCN(c2ccc(Cl)cc2)CC1)c1ccc2cccnc2c1  UniProt P50406                  1.73
3  O=S(=O)(NCCCCN1CCN(c2cccc(Cl)c2)CC1)c1cccc2cccnc12  UniProt P50406                  3.76

Let's switch to this compound now.
# input Determine reported Ki for Cl.O=S(=O)(NCCCCN1CCN(c2cccc(Cl)c2)CC1)c1cnc2ccc(Cl)cc2c1 ; test system: UniProt P50406.
# output 0.155

----------
- Target entity: D(3) dopamine receptor (Homo sapiens)
- Assay method text: Displacement of [3H]-methylspiperone from human cloned dopamine D3 receptor expressed in HEK293 cells at 10 '-6 M by liquid scintillation counter
- Type: cell-based
Quantity measured: inhibition
Please answer in the form of a number followed by its unit of measurement.

> print(dat)
                                 cpd.smiles                          target.entity  observed.measurement
1  Cl.O=S(=O)(c1cncc2ccccc12)N1CCC(CCN2CCN(c3ccc(Cl)cc3)CC2)CC1  D(3) dopamine receptor (Homo sapiens)                   93%
2  O=S(=O)(NCCCCN1CCN(c2cccc(Cl)c2)CC1)c1cnc2ccccc2c1  D(3) dopamine receptor (Homo sapiens)                   94%
3  Cl.O=S(=O)(c1cnc2ccccc2c1)N1CCC(CCN2CCN(c3ccc(Cl)cc3)CC2)CC1  D(3) dopamine receptor (Homo sapiens)                   90%

Shift focus to the following entry.
# input Specify measured inhibition for O=S(=O)(NCCCCN1CCN(c2ccc(Cl)cc2)CC1)c1cnc2ccccc2c1 .
# output 82%

----------
- Test system: Mus musculus
- Assay method text: […] activity in ip dosed Swiss albino mouse assessed as inhibition of DOI-induced head twitches administered 20 mins before DOI challenge measured for 20 mins
- Assay type: functional
- Condition notes: read-out: ID50 (the source's name)
Quantity measured: ED50 (mg/kg)
// units = mg/kg; emit number, no label

# input Output measured ED50 for this item: Cl.O=S(=O)(c1cncc2ccccc12)N1CCC(CCN2CCN(c3ccc(Cl)cc3)CC2)CC1
# output 20.3

----------
- Target entity: 5-hydroxytryptamine receptor 2A (Rattus norvegicus)
- Sequence (P14842 whole entry): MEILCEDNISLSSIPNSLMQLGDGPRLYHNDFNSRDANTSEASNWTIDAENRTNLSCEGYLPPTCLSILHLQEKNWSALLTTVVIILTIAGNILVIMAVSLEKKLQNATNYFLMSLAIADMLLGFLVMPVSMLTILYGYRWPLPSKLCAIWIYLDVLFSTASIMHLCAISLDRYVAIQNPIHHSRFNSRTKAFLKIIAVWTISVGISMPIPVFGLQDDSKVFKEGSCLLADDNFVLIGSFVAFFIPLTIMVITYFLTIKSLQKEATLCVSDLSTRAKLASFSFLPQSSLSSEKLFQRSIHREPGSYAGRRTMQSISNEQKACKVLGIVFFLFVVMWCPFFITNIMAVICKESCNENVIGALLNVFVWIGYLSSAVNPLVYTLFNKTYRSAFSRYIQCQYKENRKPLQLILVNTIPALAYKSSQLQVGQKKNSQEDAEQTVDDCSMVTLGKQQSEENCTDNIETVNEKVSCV
# Ki values compiled below
Reply with just the number (in µM).

Some entries whose results are on file:
> print(dat)
                                 cpd.smiles  observed.measurement
1  O=S(=O)(NCCCCN1CCN(c2cccc(Cl)c2)CC1)c1cccc2cccnc12                 0.152
2  O=S(=O)(c1ccc2cccnc2c1)N1CCC(CN2CCN(c3ccc(Cl)cc3)CC2)CC1                 0.761
3  O=S(=O)(c1cnc2ccccc2c1)N1CCC(CN2CCN(c3ccc(Cl)cc3)CC2)CC1                     6
4  O=S(=O)(NCCCCN1CCN(c2cccc(Cl)c2)CC1)c1ccc2ccccc2c1                 0.022
5  O=S(=O)(NCCCCN1CCN(c2ccc(Cl)cc2)CC1)c1ccc2ncccc2c1                 0.044

# input Dear colleague, please send me the reported Ki for O=S(=O)(NCCCCN1CCN(c2ccc(Cl)cc2)CC1)c1cnc2ccccc2c1 when you can.
# output 0.056

# input Identify Ki associated with the compound Cl.O=S(=O)(c1cncc2ccccc12)N1CCC(CCN2CCN(c3ccc(Cl)cc3)CC2)CC1
# output 0.059

----------
- Target entity: 5-hydroxytryptamine receptor 7 (Homo sapiens)
- Sequence (P34969 whole entry): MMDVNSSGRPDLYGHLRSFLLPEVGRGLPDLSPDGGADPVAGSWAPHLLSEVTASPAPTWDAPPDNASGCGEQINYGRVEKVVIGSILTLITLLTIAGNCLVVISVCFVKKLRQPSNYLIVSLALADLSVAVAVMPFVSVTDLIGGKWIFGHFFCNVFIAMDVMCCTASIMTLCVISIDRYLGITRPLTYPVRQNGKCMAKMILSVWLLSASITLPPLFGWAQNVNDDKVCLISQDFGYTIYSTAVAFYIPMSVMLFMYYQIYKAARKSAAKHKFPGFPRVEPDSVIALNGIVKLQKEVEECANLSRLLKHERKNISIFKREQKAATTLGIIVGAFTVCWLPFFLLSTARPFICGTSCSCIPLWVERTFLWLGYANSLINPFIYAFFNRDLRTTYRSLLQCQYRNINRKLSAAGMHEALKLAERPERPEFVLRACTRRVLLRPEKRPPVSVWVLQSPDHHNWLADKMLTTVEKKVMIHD
Quantity measured: Ki (nM)
Dear colleague, please return just the value in nM, with no unit written.

# input Return Ki for the following molecule: Cl.O=S(=O)(c1cncc2ccccc12)N1CCC(CCN2CCN(c3ccc(Cl)cc3)CC2)CC1
# output 47

----------
- Target entity: D(3) dopamine receptor (Homo sapiens) (UniProt P35462)
- Sequence (P35462 whole entry): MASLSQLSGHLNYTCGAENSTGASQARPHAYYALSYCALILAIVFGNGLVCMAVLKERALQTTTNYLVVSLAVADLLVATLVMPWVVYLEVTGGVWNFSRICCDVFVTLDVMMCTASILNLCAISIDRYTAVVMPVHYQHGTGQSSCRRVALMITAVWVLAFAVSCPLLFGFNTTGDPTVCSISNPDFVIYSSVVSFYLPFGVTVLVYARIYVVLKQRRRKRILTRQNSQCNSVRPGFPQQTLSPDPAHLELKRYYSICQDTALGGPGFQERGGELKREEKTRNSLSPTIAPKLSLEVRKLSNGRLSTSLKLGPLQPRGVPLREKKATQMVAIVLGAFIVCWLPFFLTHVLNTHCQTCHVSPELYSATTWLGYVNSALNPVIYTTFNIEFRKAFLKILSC
- Assay method text: Displacement of [3H]-methylspiperone from human cloned dopamine D3 receptor expressed in HEK293 cells at 10 '-7 M by liquid scintillation counter
- Format: cell-based
Quantity measured: inhibition (%)
// return numeric value only (unit: %, not printed)

# input Tell me its inhibition given Cl.O=S(=O)(c1cncc2ccccc12)N1CCC(CCN2CCN(c3ccc(Cl)cc3)CC2)CC1 as the entry.
# output 67

# input Identify measured inhibition corresponding to O=S(=O)(NCCCCN1CCN(c2ccc(Cl)cc2)CC1)c1cnc2ccccc2c1
# output 46

# input Respond only with inhibition recorded for O=S(=O)(NCCCCN1CCN(c2cccc(Cl)c2)CC1)c1cnc2ccccc2c1
# output 70

# input Provide inhibition value for the following compound: Cl.O=S(=O)(c1cnc2ccccc2c1)N1CCC(CCN2CCN(c3ccc(Cl)cc3)CC2)CC1
# output 52
